# target_or_test_system: Human TGR5 (Homo sapiens, UniProt Q8TDU6)
# Construct: Human enteroendocrine NCI-H716 cells constitutively expressing TGR5; endogenous in cells; host or cells: NCI-H716
# Sequence (Q8TDU6 whole entry): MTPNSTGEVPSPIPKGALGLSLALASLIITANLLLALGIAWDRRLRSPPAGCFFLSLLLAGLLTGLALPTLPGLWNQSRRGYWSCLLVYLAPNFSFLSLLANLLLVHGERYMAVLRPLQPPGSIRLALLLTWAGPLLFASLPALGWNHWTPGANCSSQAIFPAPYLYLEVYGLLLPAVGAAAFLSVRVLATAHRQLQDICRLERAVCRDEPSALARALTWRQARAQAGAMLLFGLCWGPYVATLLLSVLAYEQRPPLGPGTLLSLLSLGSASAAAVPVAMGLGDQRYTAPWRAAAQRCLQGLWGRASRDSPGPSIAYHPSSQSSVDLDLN
# assay_method_text: HTR-FRET intracellular cAMP assay in NCI-H716 cells
# Format: cell-based
# condition_description: Table 3, cross species; read-out: hTGR5 EC50
reported_metric: EC50

Exam item: What value of EC50 has been reported for the following molecule? CC[C@H]1[C@@H](O)[C@@H]2[C@H]([C@@H](O)C[C@]3(C)[C@@H]([C@H](C)CCC(=O)O)CC[C@@H]23)[C@@]2(C)CCCC[C@@H]12
Marked response: > 200 µM

----------
# target_or_test_system: PPARγ (Homo sapiens)
# Sequence (P37231 1-505): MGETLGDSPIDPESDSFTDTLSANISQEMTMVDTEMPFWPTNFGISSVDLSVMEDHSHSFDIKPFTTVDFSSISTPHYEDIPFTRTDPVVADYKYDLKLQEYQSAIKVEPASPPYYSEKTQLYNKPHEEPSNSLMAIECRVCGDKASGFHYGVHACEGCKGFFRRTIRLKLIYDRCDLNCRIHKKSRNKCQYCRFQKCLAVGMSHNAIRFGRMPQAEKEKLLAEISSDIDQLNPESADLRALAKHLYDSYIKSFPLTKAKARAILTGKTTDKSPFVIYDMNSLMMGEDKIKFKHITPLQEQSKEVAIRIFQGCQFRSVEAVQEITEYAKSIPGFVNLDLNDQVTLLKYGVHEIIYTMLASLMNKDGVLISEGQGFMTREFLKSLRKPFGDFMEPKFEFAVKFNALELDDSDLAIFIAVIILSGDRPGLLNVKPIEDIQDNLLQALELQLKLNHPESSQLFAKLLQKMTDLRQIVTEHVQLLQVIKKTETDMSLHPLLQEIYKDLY
# assay_method_text: AlphaScreen nuclear receptor profile (agonist mode), PPARγ
pEC50: −log10 of the molar value.
reported_metric: pEC50

Exam item: What value of pEC50 has been reported for the following compound? CC[C@H]1[C@@H](O)[C@@H]2[C@H]([C@@H](O)C[C@]3(C)[C@@H]([C@H](C)CCC(=O)O)CC[C@@H]23)[C@@]2(C)CCCC[C@@H]12 [Compound 1]
Marked response: < 3.52

----------
# target_or_test_system: UniProtKB Q80T02
# assay_method_text: TGR5 cross species activity, rTGR5
# condition_description: Table 3, cross species
pEC50: −log10 of the molar value.
reported_metric: pEC50

Exam item: What value of pEC50 has been reported for the following compound? CC[C@H]1[C@@H](O)[C@@H]2[C@H]([C@@H](O)C[C@]3(C)[C@@H]([C@H](C)CCC(=O)O)CC[C@@H]23)[C@@]2(C)CCCC[C@@H]12
Marked response: < 3.70

----------
# target_or_test_system: LXRα (Homo sapiens, UniProt Q13133)
# assay_method_text: AlphaScreen nuclear receptor profile (agonist mode), LXRα
reported_metric: EC50

Exam item: What value of EC50 has been reported for the following molecule? CC[C@H]1[C@@H](O)[C@@H]2[C@H]([C@@H](O)C[C@]3(C)[C@@H]([C@H](C)CCC(=O)O)CC[C@@H]23)[C@@]2(C)CCCC[C@@H]12
Marked response: > 300 µM

----------
# target_or_test_system: CAR (Homo sapiens)
# assay_method_text: AlphaScreen nuclear receptor profile (agonist mode), CAR
reported_metric: EC50

Exam item: What value of EC50 has been reported for the following molecule? CC[C@H]1[C@@H](O)[C@@H]2[C@H]([C@@H](O)C[C@]3(C)[C@@H]([C@H](C)CCC(=O)O)CC[C@@H]23)[C@@]2(C)CCCC[C@@H]12
Marked response: > 300 µM
